tested on: CCRIS mutagenicity, Ames/micronucleus/aberration tests; test: CCRIS mutagenicity studies; conditions: Test System: AMES SALMONELLA TYPHIMURIUM; Strain/Indicator: TA98; Metabolic Activation: RAT, LIVER, MICROSOMES; Method: PREINCUBATION
The source made the active and inactive calls. No rule for the calls is given here.
Classes used: active, inactive

{"item_smiles": "Cc1cc(N=Nc2ccccc2C)ccc1N", "classification": "inactive"}
{"item_smiles": "Cc1ccc(N)cc1N", "classification": "inactive"}
{"item_smiles": "Cc1cnc2ccc3c(nc(N)n3C)c2n1", "classification": "active"}
{"item_smiles": "CCC(=O)N(O)c1ccc(/C=C/c2ccccc2)cc1", "classification": "active"}
{"item_smiles": "CC(=O)N(O)c1ccc2ccccc2c1", "classification": "active"}

* * *

system: CCRIS mutagenicity, Ames/micronucleus/aberration tests; assay: CCRIS mutagenicity studies; conditions: Test System: AMES SALMONELLA TYPHIMURIUM; Strain/Indicator: TA1537; Metabolic Activation: RAT, LIVER, S-9, AROCLOR 1254 (10%); Method: PREINCUBATION
Activity calls are given as the source filed them. How the calls were made is not given here.

{"compound": "CCCCCCCC/C=C/CCCCCCCC(=O)OCCOCC(OCCO)C1OCC(OCCO)C1OCCO (stereo not drawn)", "mutagenic call": "inactive; negative"}
{"compound": "CCCCC(CC)COC(=O)CCCCCCCCC(=O)OCC(CC)CCCC (stereo not drawn)", "mutagenic call": "inactive; negative"}
{"compound": "CCCCCCCCCCCCCCCCC1CO1 (stereo not drawn)", "mutagenic call": "inactive; negative"}

* * *

tested on: CCRIS mutagenicity, Ames/micronucleus/aberration tests; assay: CCRIS mutagenicity studies; conditions: Test System: AMES SALMONELLA TYPHIMURIUM; Strain/Indicator: TA98; Metabolic Activation: RAT, LIVER, S-9, AROCLOR 1254
The source made the active and inactive calls. How the calls were made is not given here.
assay_endpoint: mutagenic call

{"molecule": "CC(C)NCC(O)c1ccc(NS(C)(=O)=O)cc1 (stereo not given)", "assay_endpoint": "mutagenic call", "test_result": "inactive; negative"}
{"molecule": "O=[N+]([O-])c1ccc(-c2ccccc2)cc1", "assay_endpoint": "mutagenic call", "test_result": "inactive; negative"}
{"molecule": "COc1cccc2c1C(=O)c1c(O)c3c(c(O)c1C2=O)CC(O)(C(C)=O)CC3OC1CC(N2CCOCC2C#N)C(O)C(C)O1 (stereo not given)", "assay_endpoint": "mutagenic call", "test_result": "active; positive"}
{"molecule": "O=[N+]([O-])c1cc2ccc3cccc4ccc(c1)c2c34", "assay_endpoint": "mutagenic call", "test_result": "active; positive"}
{"molecule": "Cc1cccc(Nc2cc(Cl)nc(SCC(=O)O)n2)c1C", "assay_endpoint": "mutagenic call", "test_result": "inactive; negative"}

* * *

system: CCRIS mutagenicity, Ames/micronucleus/aberration tests; assay: CCRIS mutagenicity studies; settings: Test System: AMES SALMONELLA TYPHIMURIUM; Strain/Indicator: TA98; Metabolic Activation: HAMSTER, LIVER, S-9, AROCLOR 1254 (10%); Method: PREINCUBATION
Calls of active or inactive are those of the source. The rule behind the calls is not given here.

{"molecule": "CC(=O)c1ccccc1[N+](=O)[O-]", "mutagenic call": "inactive; negative"}
{"molecule": "O=[N+]([O-])c1ccccc1Nc1ccccc1", "mutagenic call": "inactive; negative"}
{"molecule": "Cc1c(N)cccc1N", "mutagenic call": "active; positive"}
{"molecule": "NCCNCCNCCN", "mutagenic call": "active; positive"}
{"molecule": "O=C1c2c(Br)c(Br)c(Br)c(Br)c2C(=O)N1CCN1C(=O)c2c(Br)c(Br)c(Br)c(Br)c2C1=O", "mutagenic call": "inactive; negative"}
{"molecule": "CCCCNCC", "mutagenic call": "inactive; negative"}
{"molecule": "CN(C)c1ccc(N(C)C)cc1", "mutagenic call": "inactive; negative"}
{"molecule": "CCCCCCCC/C=C/CCCCCCCC(=O)OCCOCC(OCCO)C1OCC(OCCO)C1OCCO (stereo not drawn)", "mutagenic call": "inactive; negative"}

* * *

test system: CCRIS mutagenicity, Ames/micronucleus/aberration tests; assay: CCRIS mutagenicity studies; details: Test System: AMES SALMONELLA TYPHIMURIUM; Strain/Indicator: TA100; Metabolic Activation: NONE; Method: PREINCUBATION
Activity calls are given as the source filed them. No rule for the calls is given here.
Classes used: label 1 = active, label 0 = inactive

{"compound": "O=C(O)C(Cl)Br (centres undefined)", "classification": "label 1"}
{"compound": "CC(=O)CC(C)C", "classification": "label 0"}
{"compound": "COc1ccc(NC(C)=O)cc1N", "classification": "label 0"}
{"compound": "CN1CCC[C@H]1c1cccnc1", "classification": "label 0"}
{"compound": "O=C(O)C(F)(F)C(F)(Cl)C(F)(F)C(F)(Cl)C(F)(F)C(F)(Cl)C(F)(F)Cl (centres undefined)", "classification": "label 0"}
{"compound": "NCCNC(=O)c1ccc(Cl)cn1", "classification": "label 0"}
{"compound": "CC1OC1C (centres undefined)", "classification": "label 0"}
{"compound": "Nc1c(Cl)cc(Cl)cc1Cl", "classification": "label 0"}
{"compound": "NC(Cc1ccc(F)cc1)C(=O)O (centres undefined)", "classification": "label 0"}

* * *

Tested on: CCRIS mutagenicity, Ames/micronucleus/aberration tests
Assay: CCRIS mutagenicity studies
Conditions: Test System: AMES SALMONELLA TYPHIMURIUM; Strain/Indicator: TA98; Metabolic Activation: NONE; Method: STANDARD PLATE
Text: The CCRIS database contains chemical records with carcinogenicity, mutagenicity, tumor promotion, and tumor inhibition test results. It was developed by the National Cancer Institute (NCI). Data are derived from studies cited in primary journals, current awareness tools, NCI reports, and other sources. Test results have been reviewed by experts in carcinogenesis and mutagenesis. CCRIS provides historical information from the years 1985 - 2011. It is no longer updated. […]
Activity calls are given as the source filed them. No rule for the calls is given here.
Classes used: class 1 = active, class 0 = inactive

{"compound": "O=[N+]([O-])c1ccc2c(c1)NCC2", "classification": "class 1"}
{"compound": "Nc1ncc2[nH]cnc2n1", "classification": "class 0"}
{"compound": "C1CCC(C2(C3CCCCC3)COCCOCCOCCOCCOCCOCCO2)CC1", "classification": "class 0"}
{"compound": "O=C(CCBr)N1CCN(C(=O)CCBr)CC1", "classification": "class 0"}
{"compound": "O=C1CN(/N=C/c2ccc([N+](=O)[O-])o2)C(=O)N1", "classification": "class 1"}
{"compound": "Nc1cnc2c(c1)nc1ccccn12", "classification": "class 0"}
{"compound": "O=[N+]([O-])C1=Cc2c3c1cccc3cc1ccc3ccccc3c21", "classification": "class 1"}
{"compound": "ClCCCl", "classification": "class 0"}
{"compound": "C=C[Si](C)(Cl)Cl", "classification": "class 0"}
{"compound": "C[C@]12O[C@H]1[C@H]1CCCC[C@@H]1c1ccccc12", "classification": "class 0"}
{"compound": "CC(=O)N(O)c1ccc(Cl)c(Cl)c1", "classification": "class 0"}
{"compound": "c1ccc2c(c1)C1OOC2c2ccccc21", "classification": "class 0"}
{"compound": "C=C(C)C(=O)OCC(O)COc1ccc(C(C)(C)c2ccc(OCC(O)COC(=O)C(=C)C)cc2)cc1 (configuration not stated)", "classification": "class 0"}
{"compound": "CC(=O)OC(OC(C)=O)c1ccc([N+](=O)[O-])o1", "classification": "class 1"}
{"compound": "O=[N+]([O-])c1ccc2ccc3c4c(cc5ccc1c2c53)CCC=C4", "classification": "class 1"}
{"compound": "O=S(O)O", "classification": "class 0"}
{"compound": "O=C(Nc1cccc(Br)c1)c1csc([N+](=O)[O-])c1", "classification": "class 1"}
{"compound": "Cc1c([N+](=O)[O-])c(C)c([N+](=O)[O-])c(C(C)(C)C)c1[N+](=O)[O-]", "classification": "class 0"}
{"compound": "Cc1ccc(/C=C/c2ccc([N+](=O)[O-])cc2)cc1", "classification": "class 1"}
{"compound": "Oc1ccc2c(ccc3[nH]c4ccc5ccccc5c4c32)c1", "classification": "class 0"}
{"compound": "NCCNCCO", "classification": "class 0"}
{"compound": "Brc1ccc2c(c1)[C@@H]1O[C@@H]1[C@H]1CCCC[C@H]21", "classification": "class 0"}
{"compound": "O=S(=O)(O)c1c(N=Nc2c(O)ccc3ccccc23)ccc2ccccc12", "classification": "class 1"}
{"compound": "CC1(C)CC2=C(C=O)[C@@]3(C=O)C[C@@]3(C)[C@@H](O)[C@@H]2C1", "classification": "class 1"}
{"compound": "ONc1ccc(Sc2ccccc2)cc1", "classification": "class 1"}
{"compound": "CC(=O)OCc1c(O)c(C(=O)O)c(C)c2c1OC(=O)c1c(C)cc(O)c(C=O)c1O2", "classification": "class 0"}
{"compound": "CCc1cn([C@H]2C[C@H](O)[C@@H](CO)O2)c(=O)[nH]c1=O", "classification": "class 0"}
{"compound": "C=CC(=O)OCCCCCCOC(=O)C=C", "classification": "class 0"}
{"compound": "NC(=O)[C@@H]1CCCN1C(=O)[C@H](Cc1cnc[nH]1)NC(=O)[C@@H]1CCC(=O)N1", "classification": "class 0"}
{"compound": "C=CCCCCCCCCCCCC", "classification": "class 0"}
{"compound": "CN(C)C1Cc2cccc3cccc(c23)C1", "classification": "class 0"}
{"compound": "CC(C)Cc1ccc(C(C)C(=O)O)cc1 (configuration not stated)", "classification": "class 0"}
{"compound": "CCOc1cc(N=Nc2ccc(N(CC)CC)cc2)ccc1N=Nc1c(S(=O)(=O)O)cc2ccc(N)cc2c1O", "classification": "class 0"}
{"compound": "OCCNc1ccc(N=Nc2ccc(N(CCO)CCO)cc2)cc1", "classification": "class 0"}
{"compound": "C[Si](C)(C)O[Si](C)(C)C", "classification": "class 0"}
{"compound": "CNc1ccnc(-c2cc(N(C)C)ccn2)c1.CNc1ccnc(-c2cc(N(C)C)ccn2)c1.F[P-](F)(F)(F)(F)F.F[P-](F)(F)(F)(F)F.F[P-](F)(F)(F)(F)F.F[P-](F)(F)(F)(F)F.[NH3+]Cc1ccnc(-c2cc(C[NH3+])ccn2)c1.[Os+2]", "classification": "class 0"}
{"compound": "O=[N+]([O-])c1ccc2ccc3c4ccccc4c([N+](=O)[O-])c4ccc1c2c43", "classification": "class 1"}
{"compound": "Nc1ccc(-c2ccc(N)cc2[N+](=O)[O-])cc1", "classification": "class 1"}
{"compound": "O=C([O-])c1cc(N=Nc2ccc(-c3ccc(N/N=c4/c(=O)cc/c(=N\\Nc5cc(S(=O)(=O)[O-])ccc5[O-])c4=O)cc3)cc2)ccc1[O-].[Cu+2].[Na+].[Na+]", "classification": "class 0"}
{"compound": "C/C=C/C=C/CCCCCCCO", "classification": "class 0"}
{"compound": "O=C(O)/C(Cl)=C(\\CO)C(Cl)Cl", "classification": "class 0"}
{"compound": "CC(C)c1cc(N)c([N+](=O)[O-])cc1N", "classification": "class 0"}
{"compound": "Nc1ncn([C@@H]2O[C@H](CO)[C@@H](O)[C@@H]2O)c(=O)n1", "classification": "class 0"}
{"compound": "O=C1C=CC(=O)CC(=O)C1", "classification": "class 0"}
{"compound": "Cc1ccc2nsc(NC(=O)C(Cl)(Cl)Cl)c2c1", "classification": "class 1"}
{"compound": "COC(=O)c1ccc(C(=O)OC)cc1", "classification": "class 0"}
{"compound": "Nc1ncnc2c1ncn2[C@H]1CC[C@@H](CO)O1", "classification": "class 0"}
